Biological target: noradrenaline (NA) reuptake in synaptosomes (Rattus norvegicus, UniProt Q63380)
Construct: in synaptosomes as described in WO 97/16451; from tissue
Sequence (Q63380 1-617): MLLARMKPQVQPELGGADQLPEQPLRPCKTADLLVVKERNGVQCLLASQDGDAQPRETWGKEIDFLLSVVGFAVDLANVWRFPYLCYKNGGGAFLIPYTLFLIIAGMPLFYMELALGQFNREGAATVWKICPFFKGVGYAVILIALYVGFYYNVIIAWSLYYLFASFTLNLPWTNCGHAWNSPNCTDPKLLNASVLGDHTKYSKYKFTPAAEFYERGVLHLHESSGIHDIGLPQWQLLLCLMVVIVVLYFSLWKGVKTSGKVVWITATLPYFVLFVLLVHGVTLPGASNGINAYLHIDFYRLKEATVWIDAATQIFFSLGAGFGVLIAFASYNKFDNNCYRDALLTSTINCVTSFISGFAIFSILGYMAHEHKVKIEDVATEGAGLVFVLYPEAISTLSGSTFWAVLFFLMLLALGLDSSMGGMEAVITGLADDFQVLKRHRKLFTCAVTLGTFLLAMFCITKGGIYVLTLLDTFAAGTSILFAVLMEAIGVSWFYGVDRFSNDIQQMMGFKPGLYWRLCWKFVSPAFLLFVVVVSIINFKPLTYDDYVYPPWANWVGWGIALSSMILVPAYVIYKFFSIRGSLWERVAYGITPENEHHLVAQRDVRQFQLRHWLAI
Assay: Inhibition of NA reuptake in synaptosomes
Format: biochemical
pIC50: −log10 of the molar value.

# compound, pIC50
rows = [
    ("CCCN1CCC(CC(=O)N(CC)c2ccc(Cl)c(Cl)c2)CC1 [Compound D9]", 8.42),
]

* * *

Consider the following molecules and their measured IC50 readings.
Target: noradrenaline (NA) reuptake in synaptosomes (Rattus norvegicus, UniProt Q63380)
Construct: in synaptosomes as described in WO 97/16451; from tissue
Experiment: Inhibition of NA reuptake in synaptosomes
Assay type: biochemical
Settings: synaptosomes, 3H-NA; read-out: NA-uptake IC50

# molecule, endpoint-unit, inequality-operator, IC50
rows = [
    ("CCCN(C(=O)CC1CCN(C)CC1)c1ccc(Cl)c(Cl)c1 [Compound D20]", "nM", "=", 3.4),
    ("CCN(C(=O)CC1CCN(C)CC1)c1ccc(Br)c(Cl)c1 [Compound D13]", "nM", "=", 2.7),
    ("CN(C(=O)CC1CCNCC1)c1ccc(Cl)c(Cl)c1 [Compound B1]", "nM", "=", 120),
    ("CCN(C(=O)CC1CCNCC1)c1ccc(Cl)c(Cl)c1 [Compound C1]", "nM", "=", 6.6),
    ("CCN(C(=O)CC1CCN(C(C)C)CC1)c1ccc(Cl)c(Cl)c1 [Compound D10]", "nM", "=", 7.7),
    ("CCN(C(=O)CC1CCNCC1)c1ccc(Cl)c(Cl)c1Cl [Compound C10]", "nM", "=", 120),
    ("CCN(C(=O)CC1CCN(C)CC1)c1ccc(Br)c(Br)c1 [Compound D19]", "nM", "=", 1.1),
    ("CCN(C(=O)CC1CCN(C)CC1)c1c(Cl)cccc1Cl [Compound D16]", "nM", ">", 1000),
    ("CCN(C(=O)CC1CCNCC1)c1cccc2ccccc12 [Compound C5]", "nM", "=", 600),
    ("CCN(C(=O)CC1CCN(C)CC1)c1ccc(Cl)c(Cl)c1 [Compound D1]", "nM", "=", 4.4),
]

* * *

Where a name gives a salt, the structure may show the parent alone.
Here, each record is paired with measured melting point data.
quantity-measured: melting point

# molecule, experimental-value
data = [
    ("CCN(C(=O)CC1CCNCC1)c1ccc(Cl)c(Br)c1 (as salt: fumaric acid salt)", "141 to 143 °C"),
    ("CCN(C(=O)CC1CCNCC1)c1cc(Cl)ccc1Cl (as salt: fumaric acid salt)", "190 to 192 °C"),
    ("CCN(C(=O)CC1CCN(C)CC1)c1ccc(Cl)cc1Cl (as salt: fumaric acid salt)", "175 to 177 °C"),
    ("CCCN(C(=O)CC1CCNCC1)c1ccc(Cl)c(Cl)c1 (as salt: fumaric acid salt)", "55 to 58 °C"),
    ("CN1CCC(CC(=O)N(C)c2ccc(Cl)c(Cl)c2)CC1 (as salt: fumaric acid salt)", "57 to 59 °C"),
    ("CCN(C(=O)CC1CCN(C)CC1)c1cccc2ccccc12 (as salt: fumaric acid salt)", "63 to 66 °C"),
    ("CCN(C(=O)CC1CCNCC1)c1c(Cl)cccc1Cl (as salt: fumaric acid salt)", "167 to 169 °C"),
    ("CCN(C(=O)CC1CCN(C)CC1)c1ccc(Cl)c(Cl)c1Cl (as salt: fumaric acid salt)", "181 to 183 °C"),
    ("CCN(C(=O)CC1CCN(C)CC1)c1cccc(Cl)c1Cl (as salt: fumaric acid salt)", "51 to 53 °C"),
    ("CCN(C(=O)CC1CCNCC1)c1cc(Cl)cc(Cl)c1 (as salt: fumaric acid salt)", "151 to 153 °C"),
    ("CCN(C(=O)CC1CCNCC1)c1ccc(Cl)cc1Cl (as salt: fumaric acid salt)", "112 to 114 °C"),
    ("CCN(C(=O)CC1CCN(C)CC1)c1ccc(Cl)c(Cl)c1 (as salt: hydrochloric acid salt) [Compound D1]", "153 to 155 °C"),
    ("CCN(C(=O)CC1CCNCC1)c1ccc(Cl)c(Cl)c1Cl (as salt: fumaric acid salt)", "62 to 64 °C"),
    ("CCN(C(=O)CC1CCNCC1)c1ccc(Br)c(Br)c1 (as salt: fumaric acid salt)", "58 to 60 °C"),
]
